Target: T1, orthogonal hCD122 receptor (hoRb), hCD122 with H133D and Y134F (human, UniProt P14784 27-550); note: reference of the scale not given here
T1 sequence: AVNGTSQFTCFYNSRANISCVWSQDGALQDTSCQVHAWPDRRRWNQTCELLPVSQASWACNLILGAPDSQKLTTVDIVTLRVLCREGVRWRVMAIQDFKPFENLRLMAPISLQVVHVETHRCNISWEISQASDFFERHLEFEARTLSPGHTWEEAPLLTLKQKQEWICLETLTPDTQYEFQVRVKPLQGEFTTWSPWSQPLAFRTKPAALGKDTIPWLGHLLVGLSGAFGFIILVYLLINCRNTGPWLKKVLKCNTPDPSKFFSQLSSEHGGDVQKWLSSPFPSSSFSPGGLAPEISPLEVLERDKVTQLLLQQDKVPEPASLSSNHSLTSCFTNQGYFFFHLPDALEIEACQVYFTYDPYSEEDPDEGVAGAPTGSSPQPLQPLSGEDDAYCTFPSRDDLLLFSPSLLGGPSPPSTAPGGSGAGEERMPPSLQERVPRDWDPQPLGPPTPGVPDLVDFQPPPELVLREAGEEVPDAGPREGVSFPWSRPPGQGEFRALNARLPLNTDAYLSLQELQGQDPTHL
Test: cell-based or functional assay
Each record is given yes (1) if its reported Relative Proliferation Fold Change 3F8 1:10 is strictly below 10 fold. Records at or above 10 fold are given no (0).

Binder: V91K, SQVLKA (ligand) APTSSSTKKTQLQLSQLLVLLKAILNGINNYKNPKLTRMLTFKFYMPKKATELKHLQCLEEELKPLEEVLNLAQSKNFHLRPRDLISNINKIVLELKGSETTFMCEYADETATIVEFLNRWITFCQSIISTLT
Label class: yes (1)

Query: is_below(Relative Proliferation Fold Change 3F8 1:10, 10 fold) for ΔH16, S_VLKA (ligand) APTSSSTKKTQLQLSLLVLLKAILNGINNYKNPKLTRMLTFKFYMPKKATELKHLQCLEEELKPLEEVLNLAQSKNFHLRPRDLISNINVIVLELKGSETTFMCEYADETATIVEFLNRWITFCQSIISTLT ?
Result: yes (1)

Query: Determine if ΔD20, SQV_KA (ligand) APTSSSTKKTQLQLSQLLVLKAILNGINNYKNPKLTRMLTFKFYMPKKATELKHLQCLEEELKPLEEVLNLAQSKNFHLRPRDLISNINVIVLELKGSETTFMCEYADETATIVEFLNRWITFCQSIISTLT shows Relative Proliferation Fold Change 3F8 1:10 strictly lower than 10 fold.
Result: yes (1)

Query: For this binder, is Relative Proliferation Fold Change 3F8 1:10 lower than 10 fold? K97Q, SQVLKA (ligand) APTSSSTKKTQLQLSQLLVLLKAILNGINNYKNPKLTRMLTFKFYMPKKATELKHLQCLEEELKPLEEVLNLAQSKNFHLRPRDLISNINVIVLELQGSETTFMCEYADETATIVEFLNRWITFCQSIISTLT
Result: no (0)

Query: Consider the binder T3G, SQVLKA (ligand) APGSSSTKKTQLQLSQLLVLLKAILNGINNYKNPKLTRMLTFKFYMPKKATELKHLQCLEEELKPLEEVLNLAQSKNFHLRPRDLISNINVIVLELKGSETTFMCEYADETATIVEFLNRWITFCQSIISTLT . Is its Relative Proliferation Fold Change 3F8 1:10 strictly less than 10 fold?
Result: no (0)

Query: hey, is Relative Proliferation Fold Change 3F8 1:10 for ΔT7, SQVLKA (ligand) APTSSSKKTQLQLSQLLVLLKAILNGINNYKNPKLTRMLTFKFYMPKKATELKHLQCLEEELKPLEEVLNLAQSKNFHLRPRDLISNINVIVLELKGSETTFMCEYADETATIVEFLNRWITFCQSIISTLT lower than 10 fold or not?
Result: no (0)

Query: Lab note: Relative Proliferation Fold Change 3F8 1:10 threshold 10 fold. Does this binder come in strictly under it? SQVLKY (ligand) APTSSSTKKTQLQLSQLLVLLKYILNGINNYKNPKLTRMLTFKFYMPKKATELKHLQCLEEELKPLEEVLNLAQSKNFHLRPRDLISNINVIVLELKGSETTFMCEYADETATIVEFLNRWITFCQSIISTLT
Result: no (0)

Query: Does the reported Relative Proliferation Fold Change 3F8 1:10 of the following binder sit strictly below 10 fold? ΔM23, SQVLK- (ligand) APTSSSTKKTQLQLSQLLVLLKILNGINNYKNPKLTRMLTFKFYMPKKATELKHLQCLEEELKPLEEVLNLAQSKNFHLRPRDLISNINVIVLELKGSETTFMCEYADETATIVEFLNRWITFCQSIISTLT
Result: yes (1)

Query: Threshold test, Relative Proliferation Fold Change 3F8 1:10 < 10 fold: Q74H, SQVLKA (ligand) APTSSSTKKTQLQLSQLLVLLKAILNGINNYKNPKLTRMLTFKFYMPKKATELKHLQCLEEELKPLEEVLNLAHSKNFHLRPRDLISNINVIVLELKGSETTFMCEYADETATIVEFLNRWITFCQSIISTLT
Result: no (0)

Query: Threshold test, Relative Proliferation Fold Change 3F8 1:10 < 10 fold: SQVLRA (ligand) APTSSSTKKTQLQLSQLLVLLRAILNGINNYKNPKLTRMLTFKFYMPKKATELKHLQCLEEELKPLEEVLNLAQSKNFHLRPRDLISNINVIVLELKGSETTFMCEYADETATIVEFLNRWITFCQSIISTLT
Result: no (0)

Query: Decide: Relative Proliferation Fold Change 3F8 1:10 of SQVLKH (ligand) APTSSSTKKTQLQLSQLLVLLKHILNGINNYKNPKLTRMLTFKFYMPKKATELKHLQCLEEELKPLEEVLNLAQSKNFHLRPRDLISNINVIVLELKGSETTFMCEYADETATIVEFLNRWITFCQSIISTLT strictly below 10 fold?
Result: no (0)

Query: Lab log: compare recorded Relative Proliferation Fold Change 3F8 1:10 with 10 fold; is it strictly lower for Q126M, SQVLKA (ligand) APTSSSTKKTQLQLSQLLVLLKAILNGINNYKNPKLTRMLTFKFYMPKKATELKHLQCLEEELKPLEEVLNLAQSKNFHLRPRDLISNINVIVLELKGSETTFMCEYADETATIVEFLNRWITFCMSIISTLT ?
Result: no (0)

Query: Lab note: Relative Proliferation Fold Change 3F8 1:10 threshold 10 fold. Does this binder come in strictly under it? T3K, SQVLKA (ligand) APKSSSTKKTQLQLSQLLVLLKAILNGINNYKNPKLTRMLTFKFYMPKKATELKHLQCLEEELKPLEEVLNLAQSKNFHLRPRDLISNINVIVLELKGSETTFMCEYADETATIVEFLNRWITFCQSIISTLT
Result: yes (1)

Query: Answer whether the binder SQVLVA (ligand) APTSSSTKKTQLQLSQLLVLLVAILNGINNYKNPKLTRMLTFKFYMPKKATELKHLQCLEEELKPLEEVLNLAQSKNFHLRPRDLISNINVIVLELKGSETTFMCEYADETATIVEFLNRWITFCQSIISTLT has Relative Proliferation Fold Change 3F8 1:10 strictly less than 10 fold
Result: yes (1)

Source listed as patent US20210196796A1.
